tested on: MCF7; assay: NCI tumour cell line growth inhibition, 48 h
Activity calls are given as the source filed them. No stated cut-off is given here; in the data, active = GI50 up to about 1.1 µM and inactive = higher.
This listing pairs compounds with measured GI50.

Compound: COC(=O)C1C(O)C(C)C(O)C(C)/C=C\C=C(C)C(=O)Nc2c(C)c(OC(C)=O)c3c(c2O)C(=O)C(C)=C2OCOC(=C23)C(C)=CC(C)(O)C(O)C(C)C1O (stereo not drawn)
Tgt: MCF7
GI50: 35.6 µM (inactive)
//
Compound: O=P1(N(CCCl)CCCl)Oc2ccc(Cl)cc2C(C(Cl)(Cl)Cl)c2cc(Cl)ccc2O1 (stereo not drawn)
Tgt: MCF7
GI50: 10.4 µM (inactive)
//
Compound: C=CCN(C(=O)OC(C)(C)C)C1=CC2C(C)=CN(S(=O)(=O)c3ccccc3)C2C(OCc2ccccc2)=C1 (stereo not drawn)
Tgt: MCF7
GI50: > 100 µM (inactive)

Where do these numbers come from? They come from ChEMBL document CHEMBL1201862.
